Recorded values, source PubChem BioAssay (NCI).

# System: MDA-MB-468 breast
# METHOD_NOTES: NCI-60 one-dose screen, 48 h
# CONDITION_SUMMARY: 10 µM unless noted
About 83,000 compounds went through this panel and 20% of them were active in at least one assay; those are over-represented in the sample as a whole. Calls of active or inactive are those of the source. The calls were made as follows: active = growth percent below 10; inactive = the rest.
Please state which outcome applies, choosing from 1 (yes) for active, 0 (no) for inactive

CC1(c2ccccc2)NC(=O)NC1=O (stereo not given) : 0 (no)
CCOC(=O)c1c(-c2ccc(C)cc2)c(C#N)c(=O)n(-c2cccc(C(F)(F)F)c2)c1N : 0 (no)
COc1ccc(-c2cn[nH]c2-c2cc(OC)c(OC)c(OC)c2)cc1 : 0 (no)
CCOC(=O)c1ccc2c(c1)ncn2-c1ccc(NC(=O)Nc2cccc(C)c2)cc1 : 0 (no)

Query :: Please indicate how the test categorized COc1ccc2[nH]c(C(=O)N3CCN(C(=O)OCc4ccc5c(Br)cc(Br)c(O)c5n4)CC3)cc2c1 .
Result :: 1 (yes)

Query :: Would you mind doing CC(Sc1nc2ccccc2c(=O)n1CCc1ccc(S(N)(=O)=O)cc1)C(=O)Nc1ccc(Cl)cc1 (stereo not given) as well?
Result :: 0 (no)
